conditions: male, Sprague-Dawley, rat, plasma, other: intranasal, 10 mg/kg, Mean plasma concentration of THC, Intranasal (10 mg/kg), 90:10 propylene glycol/ethanol, n = 5, rat, time 15 minutes
assay_metric: concentration at 15 minutes (ng/mL)
Hi! Could you send only the number? It should be in ng/mL, unit omitted.

Supply reported concentration at 15 minutes belonging to this compound: CCCCCc1cc(O)c2c(c1)OC(C)(C)[C@@H]1CCC(C)=C[C@@H]21 [THC, delta-9-tetrahydrocannabinol] 24

----------
conditions: male, Sprague-Dawley, rat, plasma, iv, 1 mg/kg, Mean plasma concentration of THC, Intravenous (1 mg/kg), propylene glycol, n = 3, rat, time 30 minutes
assay_metric: concentration at 30 minutes (ng/mL)
Hi! Could you send only the number? It should be in ng/mL, unit omitted.

Supply reported concentration at 30 minutes belonging to this molecule: CCCCCc1cc(O)c2c(c1)OC(C)(C)[C@@H]1CCC(C)=C[C@@H]21 [THC, delta-9-tetrahydrocannabinol] 48
